- System: CAKI-1 renal
- protocol: NCI tumour cell line growth inhibition, 48 h

{"columns": ["compound", "TGI"],
 "data": [
  ["O=C1NC2C3CC(OCc4ccccc4)(OCc4ccccc4)C2OC3O1 (stereo not given)", "> 50 µM"],
  ["Cc1cc2c3c([n+](C)c4ccc(F)cc4c3c1)-c1cc(F)ccc1N2C", "> 100 µM"],
  ["Cc1ccc(C(C)C)c(OCC(=O)N/N=C/c2c[nH]c3ccc(Br)cc23)c1", "11.5 µM"],
  ["CC1=CC(C)(C)Nc2ccc(Cc3ccc4c(c3)C(C)=CC(C)(C)N4)cc21", "> 100 µM"],
  ["COc1cc([C@@H]2OC(=O)C3C2C(=O)O[C@H]3c2ccc(O)c(OC)c2)ccc1O (stereo not given in full)", "> 100 µM"],
  ["O=C(O/N=c1/ccc(=O)/c(=N\\OC(=O)c2ccccc2)c1=O)c1ccccc1", "> 100 µM"],
  ["COc1ccc(C(OCC2OC3(COC(c4ccccc4)(c4ccc(OC)cc4)c4ccc(OC)cc4)C(Oc4nc(=O)ccn43)C2O)(c2ccccc2)c2ccc(OC)cc2)cc1 (stereo not given)", "> 100 µM"],
  ["Clc1cc(OCc2nn3c(Cc4ccccc4)nnc3s2)c(Cl)cc1OCc1nn2c(Cc3ccccc3)nnc2s1", "> 100 µM"],
  ["CCC[CH2][Sn]([CH2]CCC)([O]C(=O)c1cc(F)ccc1F)[O]C(=O)c1cc(F)ccc1F", "2.27 µM"],
  ["S=c1[nH]n2c(COc3ccc(Cl)cc3)nnc2s1", "> 100 µM"],
  ["COc1ccc(CCc2ccc3c(c2)OCO3)cc1", "> 100 µM"],
  ["COc1cccc(N2CCN(c3ncnc4cc[nH]c34)CC2)c1", "> 100 µM"],
  ["COc1c2cc([N+](=O)[O-])cc1CN(C(=O)C(F)(F)F)CCOCCN(C(=O)C(F)(F)F)C2", "> 100 µM"],
  ["COc1ccc(NC(=O)c2oc3cc(O)ccc3c(=O)c2C)c([N+](=O)[O-])c1", "> 100 µM"],
  ["Cn1c2c(c3ccccc3c1=O)C(=O)c1ccccc1-2", "> 100 µM"],
  ["CCOC(=O)c1csc(C(CSCc2ccc(OC)cc2)N2C(=O)c3ccccc3C2=O)n1 (stereo not given)", "> 100 µM"],
  ["CC(C)OC(=O)C1(C(C)C)CCc2ccc(C(=O)CCC(=O)O)cc21 (stereo not given)", "> 100 µM"],
  ["CCCCCCCCC(C)CCCCCCCCC(=O)OCC(COP(=O)([O-])OCC[N+](C)(C)C)OC(=O)CCCCCCCCC(C)CCCCCCCC (stereo not given)", "> 100 µM"],
  ["Nn1c(-c2cccc(Cl)c2)nc2ccccc2c1=O", "> 100 µM"],
  ["COc1ccc2c(C)cc(N/N=C/c3ccc(C)s3)nc2c1", "34.4 µM"],
  ["COC1(OC)N=C(N)C2(C#N)C(C)=C3NCN(C)N=C3C12C#N (stereo not given)", "> 100 µM"],
  ["O=C(Nc1ccc([N+](=O)[O-])cc1[N+](=O)[O-])C(=O)C(C(=O)c1ccc(Cl)c(Cl)c1)C1OC(=O)c2ccccc21 (stereo not given)", "> 100 µM"],
  ["COC(=O)c1ccc(C(=O)OC)c2nc3cc(Cl)ccc3nc12", "> 100 µM"],
  ["C=C(C)C1CCC2=CC(CC3(C)OC3C3=CC(C(=O)OC)=C(C1)O3)OC2=O (stereo not given)", "> 100 µM"],
  ["CO/C=C1\\OC(=O)C=C1OC", "> 100 µM"],
  ["CC(=O)OC1CC(OC2C(O)CC(OC3C(O)CC(OC4CCC5(C)C(CCC6C5CCC5(C)C(C7=CC(=O)OC7)CCC65O)C4)OC3C)OC2C)OC(C)C1OC1OC(CO)C(O)C(O)C1O (stereo not given)", "< 0.0321 µM"],
  ["COc1ccc(/C=N/N=C(\\N)NO)cc1F", "46.5 µM"],
  ["CC[C@@H]([C@H](O)c1ccccc1Cl)[N+](=O)[O-]", "> 100 µM"],
  ["Cc1ccc2c(=O)c(-c3nnc(NC4CCCCC4)s3)c[nH]c2n1", "> 100 µM"],
  ["O=[N+]([O-])c1cccc(S(=O)(=O)N/N=C/c2cc(I)cc([N+](=O)[O-])c2O)c1", "50.9 µM"],
  ["COc1c(B(O)O)cccc1-c1nc2ccc3[nH]ncc3c2c2c1CCCC2", "0.252 µM"],
  ["CN(C)N=Nc1cccc(C(N)=O)c1", "> 100 µM"],
  ["O=C(O)/C(Cl)=C(Cl)/C=N/NC(=O)c1cc2ccccc2cc1O", "> 100 µM"],
  ["CC1(C2COC(=O)C2)SCCCS1 (stereo not given)", "> 100 µM"],
  ["C#CCOc1cccc(Nc2ncnc3cc(NC(=O)C=C)ccc23)c1", "> 100 µM"]
]}

This collection of values is drawn from PubChem BioAssay (NCI).
